subject_of_test: ErbB2 with Exon 20 YVMA insertion (HER2-YVMA) (Homo sapiens (Human), UniProt P04626, INS775YVMA)
Sequence (P04626 other isoform, or with tags, fused parts or gaps ins YVMA behind 775): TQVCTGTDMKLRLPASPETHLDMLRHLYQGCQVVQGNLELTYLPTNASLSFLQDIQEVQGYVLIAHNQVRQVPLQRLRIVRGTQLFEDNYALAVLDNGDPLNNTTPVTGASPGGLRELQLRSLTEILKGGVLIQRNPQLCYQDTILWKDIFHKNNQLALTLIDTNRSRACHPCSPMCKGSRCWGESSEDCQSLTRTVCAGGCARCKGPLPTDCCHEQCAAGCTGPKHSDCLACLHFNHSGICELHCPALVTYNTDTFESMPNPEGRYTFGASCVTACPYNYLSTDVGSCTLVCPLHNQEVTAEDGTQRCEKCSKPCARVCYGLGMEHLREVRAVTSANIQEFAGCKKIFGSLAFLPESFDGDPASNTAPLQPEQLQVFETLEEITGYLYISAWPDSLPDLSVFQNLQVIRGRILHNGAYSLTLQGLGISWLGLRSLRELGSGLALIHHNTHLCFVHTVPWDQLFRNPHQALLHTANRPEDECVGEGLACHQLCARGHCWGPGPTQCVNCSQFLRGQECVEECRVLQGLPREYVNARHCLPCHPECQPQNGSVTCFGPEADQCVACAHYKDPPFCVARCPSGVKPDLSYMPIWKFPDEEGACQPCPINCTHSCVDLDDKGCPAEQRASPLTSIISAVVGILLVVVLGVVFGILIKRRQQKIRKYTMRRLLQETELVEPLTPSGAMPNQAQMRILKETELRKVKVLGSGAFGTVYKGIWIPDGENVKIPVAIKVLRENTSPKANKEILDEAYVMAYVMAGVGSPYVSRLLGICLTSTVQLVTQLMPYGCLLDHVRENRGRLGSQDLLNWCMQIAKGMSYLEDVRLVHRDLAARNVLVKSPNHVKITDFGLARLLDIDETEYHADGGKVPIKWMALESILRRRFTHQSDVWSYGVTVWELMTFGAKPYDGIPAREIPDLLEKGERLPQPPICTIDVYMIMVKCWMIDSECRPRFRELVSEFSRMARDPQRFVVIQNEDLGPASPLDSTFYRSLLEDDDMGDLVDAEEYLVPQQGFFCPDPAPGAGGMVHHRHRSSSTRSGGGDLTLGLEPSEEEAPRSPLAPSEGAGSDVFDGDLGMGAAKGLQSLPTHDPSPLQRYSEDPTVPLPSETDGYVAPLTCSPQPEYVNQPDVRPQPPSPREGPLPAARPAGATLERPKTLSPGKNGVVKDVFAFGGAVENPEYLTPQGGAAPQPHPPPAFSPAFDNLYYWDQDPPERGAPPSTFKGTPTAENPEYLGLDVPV
experiment_description: Cellular Phosphorylation Assay, Assay 4 (constitutive ErbB2 phosphorylation, NIH 3T3 cells)
Type: cell-based
reported_conditions: cellular ErbB2 YVMA phosphorylation
Listed here: items and their measured IC50.
value_kind: IC50 (nM)

molecule="C=CC(=O)N1CCN(c2ccc3ncnc(Nc4ccc(Oc5ccn6ncnc6c5)c(C)c4F)c3n2)C[C@@H]1C1CCC1 (racemic) [Example 305]" observed=66.1
molecule="C=CC(=O)N1CCN(c2ccc3ncnc(Nc4ccc(Oc5cnc6c(c5)ncn6C)c(C)c4F)c3n2)CC12CC2 [Example 450]" observed=9.8
molecule="C=CC(=O)N1C[C@H]2CC[C@@H]1[C@H](c1ccc3ncnc(Nc4cc(C)c(Oc5cnc6c(c5)ncn6C)cc4F)c3n1)C2 [Example 424]" observed=44.8
molecule="C=CC(=O)N1C2CC1CN(c1ccc3ncnc(Nc4ccc(Oc5ccc6c(c5)ncn6C)c(Cl)c4F)c3n1)C2 [Example 325]" observed=11.6
molecule="C=CC(=O)N1C[C@H]2C[C@@H]1CN(c1ccc3ncnc(Nc4cc(Cl)c(Oc5ccn6ncnc6c5)cc4F)c3n1)C2 [Example 292]" observed=71
molecule="C=CC(=O)N1C[C@H]2CC[C@@H]1CN2c1ccc2ncnc(Nc3cc(C)c(Oc4cnc5c(c4)ncn5C)cc3F)c2n1 [Example 367]" observed=70.4

---

subject_of_test: EGFR (Homo sapiens (Human))
Sequence (P00533 25-1210): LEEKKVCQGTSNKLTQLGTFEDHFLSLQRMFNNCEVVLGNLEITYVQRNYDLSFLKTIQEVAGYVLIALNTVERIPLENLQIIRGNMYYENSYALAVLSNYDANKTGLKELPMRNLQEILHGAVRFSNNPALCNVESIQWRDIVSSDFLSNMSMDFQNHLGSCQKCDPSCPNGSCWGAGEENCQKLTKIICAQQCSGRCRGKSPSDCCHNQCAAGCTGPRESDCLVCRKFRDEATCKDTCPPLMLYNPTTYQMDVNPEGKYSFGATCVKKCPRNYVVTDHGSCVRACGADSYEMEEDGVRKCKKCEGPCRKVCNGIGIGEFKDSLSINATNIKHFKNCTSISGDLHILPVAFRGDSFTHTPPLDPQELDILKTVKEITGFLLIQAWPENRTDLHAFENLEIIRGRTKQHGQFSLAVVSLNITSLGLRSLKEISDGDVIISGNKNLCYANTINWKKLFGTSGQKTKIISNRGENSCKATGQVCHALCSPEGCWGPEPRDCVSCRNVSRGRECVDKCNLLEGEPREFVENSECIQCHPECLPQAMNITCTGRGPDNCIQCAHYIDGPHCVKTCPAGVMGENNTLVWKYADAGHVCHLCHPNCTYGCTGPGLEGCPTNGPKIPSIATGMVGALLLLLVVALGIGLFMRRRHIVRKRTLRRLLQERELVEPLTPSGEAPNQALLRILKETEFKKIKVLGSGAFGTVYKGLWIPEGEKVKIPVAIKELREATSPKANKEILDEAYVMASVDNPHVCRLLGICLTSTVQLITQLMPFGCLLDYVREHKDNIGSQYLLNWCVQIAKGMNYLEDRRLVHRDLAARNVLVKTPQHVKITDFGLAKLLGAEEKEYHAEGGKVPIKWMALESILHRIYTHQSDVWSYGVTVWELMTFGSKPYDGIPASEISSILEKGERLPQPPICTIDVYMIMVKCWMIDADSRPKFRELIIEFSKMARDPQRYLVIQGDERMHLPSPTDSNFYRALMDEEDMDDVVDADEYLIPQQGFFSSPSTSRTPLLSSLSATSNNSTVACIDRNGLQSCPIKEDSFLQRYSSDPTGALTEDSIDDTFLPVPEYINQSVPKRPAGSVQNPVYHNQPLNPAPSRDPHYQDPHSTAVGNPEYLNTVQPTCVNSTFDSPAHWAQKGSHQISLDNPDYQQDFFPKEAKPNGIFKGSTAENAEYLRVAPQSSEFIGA
experiment_description: ErbB Enzyme Assay (HTRF KinEASE-TK), Assay 3
Assay type: biochemical
reported_conditions: EGFR enzyme
value_kind: log10(IC50) (log10 of the value in µM)

smiles_structure=C=CC(=O)N1C[C@@H]2C[C@H]1CN2c1ccc2ncnc(Nc3ccc(Oc4ccn5ncnc5c4)c(Cl)c3F)c2n1 value_kind=log10(IC50) observed=-0.86
smiles_structure=C=CC(=O)N1CCC(Sc2ccc3ncnc(Nc4ccc(Oc5ccc6c(c5)ncn6C)c(C)c4)c3n2)CC1 value_kind=log10(IC50) observed=-0.27
smiles_structure=C=CC(=O)N1CCC(Oc2nc3c(Nc4ccc(Oc5ccc6cn(C)nc6c5)c(C)c4)ncnc3cc2OC)CC1 value_kind=log10(IC50) observed=0.36
smiles_structure=C=CC(=O)N1CCN(c2nc3c(Nc4ccc(Oc5ccn6ncnc6c5)c(Cl)c4F)ncnc3cc2OC)CC1 value_kind=log10(IC50) observed=-1.79
smiles_structure=C=CC(=O)N1C[C@H]2CN(c3ccc4ncnc(Nc5ccc(Oc6ccc7c(c6)ncn7C)c(C)c5)c4n3)C[C@H]21 value_kind=log10(IC50) observed=0.41
smiles_structure=C=CC(=O)N1CCN(c2ccc3ncnc(Nc4ccc(Oc5ccn6ncnc6c5)c(Cl)c4F)c3n2)C[C@H]1C(F)(F)F value_kind=log10(IC50) observed=-0.69

---

Listed here: items and their measured IC50.
subject_of_test: EGFR wild type (EGFR WT) (Homo sapiens (Human), UniProt P00533)
Sequence (P00533 25-1210): as the sequence (P00533 25-1210) above
experiment_description: Cellular Phosphorylation Assay, Assay 5 (EGF-stimulated EGFR phosphorylation, NIH 3T3 cells)
Assay type: cell-based
reported_conditions: EGF-stimulated EGFR WT phosphorylation
value_kind: IC50 (nM)

molecule=C=CC(=O)N1CCN(c2ccc3ncnc(Nc4ccc(Oc5ccn6ncnc6c5)c(Cl)c4)c3n2)CC1 value_kind=IC50 sign_qualifier== observed=413
molecule=C=CC(=O)N1C[C@@H]2C[C@H]1CN2c1ccc2ncnc(Nc3ccc(Oc4ccn5ncnc5c4)c(Cl)c3F)c2n1 value_kind=IC50 sign_qualifier== observed=53.5
molecule="C=CC(=O)N1[C@@H]2CC[C@H]1[C@H](c1ccc3ncnc(Nc4ccc(Oc5ccn6ncnc6c5)c(C)c4)c3n1)C2 (racemic) [Example 220]" value_kind=IC50 sign_qualifier=≥ observed=5000
molecule=C=CC(=O)N1CCN(c2ccc3ncnc(Nc4cc(C)c(Oc5ccc6c(c5)ncn6C)cc4F)c3n2)CC1(C)C value_kind=IC50 sign_qualifier== observed=4400
